# System: Plasmodium berghei
# Procedure Summary: Screen against P. berghei liver stage (PbLuc), transformed with Luciferase, at 2uM
# Format: functional, HepG2
# Settings: tested at 2 uM
The campaign covered roughly 68,000 compounds. About 2,700 (4%) showed an effect of 50% or more. Only a selection was taken, and strong results are over-represented in it overall.
Please respond with 1.0 when measured INHIBITION is strictly beneath 40%, and with 0.0 in all other cases.

See these solved cases before continuing.
O=C(CCC(=O)N1CCC(c2noc3cc(F)ccc23)CC1)NC1CC1 ... 1.0
c1cnc(N2CCN(CCn3ccnc3-c3ccncc3)CC2)nc1 ... 1.0
CSCCC(NC(N)=O)C(=O)NCc1ccc(-n2cccn2)cc1 (configuration not stated) ... 0.0
CSCCC(NC(N)=O)C(=O)Nc1ccc(-n2cccn2)nc1 (configuration not stated) ... 1.0

In: Consider the molecule "CNC(=O)CN1CCC(c2nn(C)c(=O)n2-c2ccccc2)CC1" . Is its INHIBITION strictly less than 40%?
Out: 1.0

In: Consider the molecule CN(C)c1nccc(C2CN(c3cnccn3)CCO2)n1 (configuration not stated) . Is its INHIBITION strictly less than 40%?
Out: 0.0

* * *

# Tested on: Plasmodium berghei
# Procedure Summary: Screen against P. berghei liver stage (PbLuc), transformed with Luciferase, at 2uM
# Format: functional, HepG2
# Settings: tested at 2 uM
Screen size: about 68,000 compounds; about 2,700 (4%) showed an effect of 50% or more. The full list was thinned out, with strong results kept by preference.
Please respond with Fulfilled when measured INHIBITION is strictly beneath 30%, and with Not fulfilled in all other cases.

Cc1ccc([C@@H]2CN(S(=O)(=O)N(C)C)C[C@H]2N(C)C)cc1 ... Fulfilled
COc1ccc(C2CCN(Cc3cscn3)CC2)cc1 ... Not fulfilled

In: Consider the compound "Cc1c(C(=O)NC2=NCCS2)cnn1-c1ccc(Br)cc1" . Is its INHIBITION strictly less than 30%?
Out: Fulfilled

In: Consider the compound "Cc1ccc([C@@H]2CN(S(=O)(=O)N3CCC(C)CC3)C[C@H]2N(C)C)cc1" . Is its INHIBITION strictly less than 30%?
Out: Not fulfilled

In: Consider the compound "Cc1cccc(N2CCN(CCC(=O)NCc3cnc(C)cn3)CC2)c1" . Is its INHIBITION strictly less than 30%?
Out: Fulfilled

In: Consider the compound "c1ccc(-c2cccc(N3CCC(NCCc4cscn4)CC3)c2)cc1" . Is its INHIBITION strictly less than 30%?
Out: Fulfilled

In: Consider the compound "Cc1cccc(N2CCN(CCC(=O)NCc3nnc[nH]3)CC2)c1" . Is its INHIBITION strictly less than 30%?
Out: Not fulfilled

In: Consider the compound "COc1ccc2c(c1)CCN(Cc1cscn1)CC2" . Is its INHIBITION strictly less than 30%?
Out: Fulfilled

* * *

Would you mind telling me the reported INHIBITION of each entry?
# Test system: Plasmodium berghei
# Procedure Summary: Screen against P. berghei liver stage (PbLuc), transformed with Luciferase, at 2uM
# Format: functional, HepG2
# Settings: tested at 2 uM
The whole screen tested about 68,000 compounds, of which about 2,700 (4%) showed an effect of 50% or more. For the sample, strong results were picked, then their nearest neighbours and some compounds at random.
Numbers only, in %.

Dear colleague, could you please provide INHIBITION for the compounds listed below?
1. CC(C)(CNc1ccc(S(=O)(=O)C(F)F)cc1)N1CCOCC1
2. C=C(C)COc1cccc(CN(CC)Cc2noc(C)n2)c1
3. Cc1nn(C)c(Oc2ccc(Cl)cc2)c1CN1CCOC(CN)C1 (stereo unspecified)

Out:
1. 5.02
2. 36.28
3. 48.21

Dear colleague, could you please provide INHIBITION for the compounds listed below?
1. O=c1[nH]c(N2CCCCC2)nc2c1CCN(Cc1cccnc1)C2
2. CN1CCN(C(=O)NCCc2ccc(F)cc2)[C@H]2CS(=O)(=O)C[C@H]21
3. C=C(C)COc1cccc(C(=O)N(CC)Cc2nc(COC)no2)c1
4. COc1ccc(CNC(=O)N2CCN(C)[C@@H]3CS(=O)(=O)C[C@@H]32)cc1
5. CC(C)(C)c1nc(CN2CCCC(Cn3cncn3)C2)no1 (stereo unspecified)

Out:
1. 43.23
2. 50.59
3. -18.57
4. -47.18
5. -64.16

Dear colleague, could you please provide INHIBITION for the compounds listed below?
1. C=C(C)CNc1ccc(C(=O)N(CC)Cc2nccn2C)cn1
2. O=C(NCC(=O)N1CCc2ccccc2C1)c1cnccn1

Out:
1. -13.51
2. 23.94

Query "CCn1c(O)c(C(C)=O)c2cc(C)ccc21" yields INHIBITION of 30.48

* * *

# System: Plasmodium berghei
# Procedure Summary: Screen against P. berghei liver stage (PbLuc), transformed with Luciferase, at 2uM
# Type: functional, HepG2
# Settings: tested at 2 uM
Among all 68,000 compounds or so, about 2,700 (4%) showed an effect of 50% or more. This is one part of a sample in which strong results are shown more often than they occur.
Would you mind telling me the reported INHIBITION of each entry?
Numbers only, in %.

A selection of reference data follows.
Cc1nnc(NC(=O)c2c3c(nn2C2CCS(=O)(=O)C2)CCC3)s1 (configuration not stated) ... 48.68
CCc1ccc(C(=O)NCCNc2ncccn2)cc1 ... 56.02
CC(=O)N1CCN(C(=O)CN2CCc3c(ncn3C3CC3)C2)CC1 ... 37.52
CC(NCc1ccccn1)c1cc2c(cc1Br)OCCO2 (configuration not stated) ... 8.93

Dear colleague, could you please provide INHIBITION for the compounds listed below?
1. Cc1cc(C)c(C(=O)N2CCCC(C(=O)CCc3ccccc3)C2)cn1 (configuration not stated)
2. COc1ccc(CN2CC[C@H]3O[C@@H](C(=O)NCC4CC4)CC[C@H]32)cc1
3. CCC(C)NC(=O)c1ccc(-c2ccco2)[nH]c1=O (configuration not stated)
4. CS(=O)(=O)c1ccc(C(=O)NCCNc2ncccn2)cc1
5. Cc1nc(NC(=O)c2c3c(nn2C2CCS(=O)(=O)C2)CCC3)sc1C (configuration not stated)
6. CN(C)S(=O)(=O)N1CCC(C(O)c2ccc(Cl)cc2)CC1 (configuration not stated)
7. COc1cc(OC)cc(C(=O)NCCCNc2ncccn2)c1

Out:
1. 0.73
2. 44.4
3. 31.51
4. 35.65
5. 20.76
6. 24.36
7. 57.75

Dear colleague, could you please provide INHIBITION for the compounds listed below?
1. Cc1cc(N2CCN(C(=O)c3cnn(C(C)C)c3)CC2)cc(C)n1
2. Cc1cc(C)cc(C(=O)NCCCNc2ncccn2)c1
3. CC(C)c1nnc(N2C[C@H]3CC[C@@H](C2)N(Cc2ccccc2)C3)s1
4. Cn1cc(CN2CC[C@@H]3[C@@H](CCC(=O)N3CCc3c[nH]cn3)C2)cn1

Out:
[44.95, 29.13, -23.49, -21.16]

Dear colleague, could you please provide INHIBITION for the compounds listed below?
1. CC1CN(S(=O)(=O)c2ccc(C(=O)NCC(F)F)cc2)CCCO1 (configuration not stated)
2. COC1CCN(C(=O)CCc2c(C)nc3ccnn3c2C)CC1
3. COc1ccc(-c2cc3cccn(CC(=O)N4CCOCC4)c-3n2)cc1
4. Cc1cccc(C(=O)NCCCN2CCc3ccccc3C2)c1C
5. NC(=O)C1CN(C(=O)C2(c3ccc(F)cc3F)CCCC2)CCO1 (configuration not stated)
6. CC(NCc1ccncc1)c1cc2c(cc1Br)OCCO2 (configuration not stated)
7. COCCS(=O)(=O)NCC(C)c1cccc(C)c1 (configuration not stated)
8. O=C(NCCN1CCOCC1)NCC(O)c1cccc(F)c1 (configuration not stated)

Out:
[9.21, -3.38, -16.87, 28.88, 56.49, 42.7, 72.49, -27.69]

Dear colleague, could you please provide INHIBITION for the compounds listed below?
1. COCCS(=O)(=O)NC(C)c1cccc(C)c1C (configuration not stated)
2. Cc1cc(=O)n(C)cc1NC(=O)CC1CCC1
3. Cc1cccc(C(C)CNS(=O)(=O)CCCC#N)c1 (configuration not stated)
4. CC1c2ncc(CNC(=O)C3CC3)n2CCN1CC1CCC1 (configuration not stated)
5. CC1=C[C@@H](CC#N)[C@H](C(C)C)C[C@H]1CC(=O)N1CCN(CCO)CC1
6. COc1cc(C2(C(=O)N3CCN(CC(C)(C)O)CC3)CC2)ccc1C
7. COc1cccc(Nc2nc(-c3ccncc3)nc3c2CNCC3)c1

Out:
[16.38, -54.44, 16.95, 35.07, -3.1, 17.48, 12.6]

* * *

# System: Plasmodium berghei
# Procedure Summary: Screen against P. berghei liver stage (PbLuc), transformed with Luciferase, at 2uM
# Type: functional, HepG2
# Settings: tested at 2 uM
Screen size: about 68,000 compounds; about 2,700 (4%) showed an effect of 50% or more. Shown is part of a subset that was picked to be rich in strong results.
Would you mind telling me the reported INHIBITION of each entry?
Give bare numbers, in %.

O=C1NCC(C(=O)Nc2ncc(Cc3ccccc3)s2)N1 (configuration not stated) ... 53.98

Dear colleague, could you please provide INHIBITION for the compounds listed below?
1. O=C1NCC(C(=O)Nc2ncc(Cc3cccc(F)c3)s2)N1 (configuration not stated)
2. COCC(O)CN1CCC(NC(=O)c2cscc2C)CC1 (configuration not stated)
3. O=C1NC2(CCN(C(=O)c3ccccc3)CC2)CC1c1cccnc1 (configuration not stated)

Out:
3.06
50.93
-51.9
